assay: Competitive inhibition of Saccharomyces cerevisiae alpha-glucosidase assessed as inhibition constant for inhibitor-enzyme complex formation using p-nitrophenyl glycosides as substrate measured for 125 secs by spectrophotometry analysis
measureName: pKi
Answers are plain numbers, as −log10 of the molar value.

Request the reported pKi associated with O=C(Oc1ccccc1O[C@H]1O[C@H](CO)[C@@H](O)[C@H](O)[C@H]1O)c1ccccc1
4.41

---

test: Octanol/water partition coefficient, log D of compound at pH 7.4 at 1 uM incubated for 2 hrs by LC-MS analysis; type: physicochemical
# note: exactly 2 is not below, so it is F; use T for logD at 2 h, 1 µM strictly under it

Worked examples follow.
O=C(Oc1ccc(O[C@H]2O[C@H](CO)[C@@H](O)[C@H](O)[C@H]2O)cc1)c1ccccc1; T
COC[C@H]1O[C@@H](c2c(O)cc(O)cc2O)[C@H](OC)[C@@H](OC)[C@@H]1OC; T
COC[C@H]1O[C@@H](c2ccc(O)c(O)c2)[C@H](OC)[C@@H](OC)[C@@H]1OC; T
COC[C@H]1O[C@@H](c2cc(OC(=O)c3ccccc3)ccc2O)[C@H](OC)[C@@H](OC)[C@@H]1OC; F

Okay, now this compound:
Quick check: does COC[C@H]1O[C@@H](c2c(O)ccc3ccccc23)[C@H](OC)[C@@H](OC)[C@@H]1OC have logD at 2 h, 1 µM under 2?
F

Values from ChEMBL document CHEMBL4665828
